Target: Recombinant autotaxin (Homo sapiens, UniProt Q13822)
Assay: Autotaxin assay (Amplex Red, LPC substrate)
Conditions: recombinant autotaxin, LPC substrate, Amplex Red detection; values given as upper bounds
pIC50: −log10 of the molar value.
Below, each entry is listed alongside its reported pIC50.

[
  {
    "molecule": "O=C(OCc1ccc(C(F)(F)F)cc1)N1CCC(n2ccc(-c3ccc4[nH]c(=O)oc4c3)n2)CC1",
    "endpoint.result": "> 5.00"
  },
  {
    "molecule": "O=C(OCc1ccc2c(c1)OCCO2)N1CCN(C2CCN(C(=O)c3ccc4[nH]nnc4c3)CC2)CC1",
    "endpoint.result": "> 5.00"
  },
  {
    "molecule": "O=C(OCc1cc(C(F)(F)F)cc(C(F)(F)F)c1)N1CCN(C2CCN(C(=O)c3ccc4[nH]c(=S)[nH]c4c3)CC2)CC1",
    "endpoint.result": "> 6.00"
  },
  {
    "molecule": "O=C(CCc1ccc(C(F)(F)F)c(F)c1)N1CCN(C2CCN(C(=O)c3ccc4[nH]nnc4c3)CC2)CC1",
    "endpoint.result": "> 6.00"
  },
  {
    "molecule": "O=C(NCCc1ccncc1)C1CC(=O)N(C2CCN(C(=O)OCc3cc(Cl)cc(Cl)c3)CC2)C1 (stereo not shown)",
    "endpoint.result": "> 5.00"
  }
]

Data request: Which pIC50 reading was recorded for the molecule O=C(OCc1cc(-c2ccsc2)cs1)N1CCN(C2CCN(C(=O)c3ccc4[nH]nnc4c3)CC2)CC1 ?
Data returned: > 6.00

Data request: Fill blank: measured pIC50 of the molecule O=C(Nc1ccc2[nH]c(=O)oc2c1)C1CC(=O)N(C2CCN(C(=O)OCc3ccc(Cl)cc3)CC2)C1 (stereo not shown) is ____.
Data returned: > 5.00

Each recorded value in this set is attributed to patent US9452997B2.
